assay: Toxicity liver stage against HepG2, at 10uM; type: cell-based; set-up: test concentration 10 uM, cell line HepG2-A16-CD81EGFP; details: human, HepG2-A16-CD81EGFP cells; read-out: INHIBITION
measured.property: cytotoxicity at 10 µM

INSERT INTO results (compound, measured_property, result) VALUES
  ('CN(C)C1(CNC(=O)c2c(O)cc(Cl)cc2Cl)CCOCC1', 'cytotoxicity at 10 µM', '-9.46%'),
  ('COCCNC(=O)C1CCCN(c2ccc3nncn3n2)C1 (stereo not drawn)', 'cytotoxicity at 10 µM', '-0.302%'),
  ('CC(NCc1ccc(OCC(N)=O)cc1)c1ccc(Cl)c(Cl)c1 (stereo not drawn)', 'cytotoxicity at 10 µM', '-5.25%'),
  ('Cc1csc(C(Cc2ccsc2)NC(=O)C2CCN(S(C)(=O)=O)CC2)n1 (stereo not drawn)', 'cytotoxicity at 10 µM', '-18%'),
  ('CCS(=O)(=O)N1CCCC2(COCCN(c3ccccn3)C2)C1 (stereo not drawn)', 'cytotoxicity at 10 µM', '-1.02%'),
  ('CCc1ncc2c(n1)CN(c1nnc(C)c(C)c1C#N)CC2', 'cytotoxicity at 10 µM', '-134%'),
  ('Cn1cc(CN2C[C@H]3CCC[C@@]3(COCC3CC3)C2)cn1', 'cytotoxicity at 10 µM', '-97.8%'),
  ('Cc1nn(C)c(N2CCOCC2)c1CNC(C)c1ccccn1 (stereo not drawn)', 'cytotoxicity at 10 µM', '-10.7%'),
  ('O=C(c1ccc(Cl)cc1)N1CCc2nc(C(=O)N3CCCC3)sc2CC1', 'cytotoxicity at 10 µM', '8.04%'),
  ('COCCN1CCC(NC(=O)NCC2(c3ccccc3)CC2)C1 (stereo not drawn)', 'cytotoxicity at 10 µM', '0.814%'),
  ('COCCNC(=O)c1cc(-n2cccc2)ccc1Cl', 'cytotoxicity at 10 µM', '-3.45%'),
  ('CCOc1c(F)cccc1C(=O)N(CC)C(C)c1ccncc1 (stereo not drawn)', 'cytotoxicity at 10 µM', '11%'),
  ('Cc1ccc(CNc2ccc(N3CCC(CO)CC3)cn2)o1', 'cytotoxicity at 10 µM', '19.1%'),
  ('Cc1nc(CN2CCc3nn(C)c(=O)cc3C2)oc1C', 'cytotoxicity at 10 µM', '-2.74%'),
  ('NCC1[C@H]2CN(CCc3ccccc3)C[C@@H]12 (stereo partly drawn)', 'cytotoxicity at 10 µM', '5.22%'),
  ('O=C(NC1CCCN(c2ncccn2)C1)c1ccoc1 (stereo not drawn)', 'cytotoxicity at 10 µM', '-4.56%'),
  ('CC(CS(C)(=O)=O)N(C(=O)CCc1ccsc1)C1CC1 (stereo not drawn)', 'cytotoxicity at 10 µM', '1.97%'),
  ('Cc1ccc(-c2ccc(Cl)nn2)cc1S(=O)(=O)N1CCOCC1', 'cytotoxicity at 10 µM', '-4.26%'),
  ('CCn1cc(CN2CCCN(C(=O)CCc3cccs3)CC2)cn1', 'cytotoxicity at 10 µM', '-6.99%'),
  ('Cc1cc(C(=O)N2CCC(O)(Cn3ccc4ccncc43)CC2)on1', 'cytotoxicity at 10 µM', '7.55%'),
  ('O=C(NCCCN1CCCCC1)c1n[nH]c(=O)c2ccccc12', 'cytotoxicity at 10 µM', '-30.9%'),
  ('O=C(COCC1CC1)Nc1ncccc1I', 'cytotoxicity at 10 µM', '22.5%'),
  ('O=C1[C@@H]2CCN(C3CCC3)C[C@@H]2OCCN1Cc1ccncc1', 'cytotoxicity at 10 µM', '-135%');
